Listed below: log10 of IC50 values for each entry.
molecular target: Dual specificity mitogen-activated protein kinase kinase 1 (Homo sapiens); assay: Inhibition of MEK1 (unknown origin) using ERK2 as substrate after 40 mins by ELISA
Sequence (Q02750 whole entry): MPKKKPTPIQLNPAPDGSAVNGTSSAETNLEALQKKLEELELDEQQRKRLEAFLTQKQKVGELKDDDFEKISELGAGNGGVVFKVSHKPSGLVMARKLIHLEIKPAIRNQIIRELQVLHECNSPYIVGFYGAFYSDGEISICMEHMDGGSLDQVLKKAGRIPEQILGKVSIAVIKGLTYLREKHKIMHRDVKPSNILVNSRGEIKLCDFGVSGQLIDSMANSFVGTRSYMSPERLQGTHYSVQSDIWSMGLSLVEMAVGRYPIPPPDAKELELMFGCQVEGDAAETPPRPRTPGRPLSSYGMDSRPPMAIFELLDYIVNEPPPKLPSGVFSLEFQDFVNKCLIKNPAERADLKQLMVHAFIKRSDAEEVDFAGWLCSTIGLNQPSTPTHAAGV
Values are log10 of IC50 in nM.

Example results:
>  <CHEMICAL_STRUCTURE>
CCNc1cc(O)c2c(c1)C#CC[C@H](O)[C@H](O)C(=O)/C=C\[C@@H](C)[C@H](C)OC2=O

>  <log10 of IC50>
2.26

$$$$
>  <CHEMICAL_STRUCTURE>
C[C@@H]1/C=C\C(=O)[C@@H](O)[C@@H](O)C/C=C/c2cc(NCCNCCO)cc(O)c2C(=O)O[C@H]1C

>  <log10 of IC50>
2.93

$$$$
>  <CHEMICAL_STRUCTURE>
C[C@@H]1/C=C\C(=O)[C@@H](O)[C@@H](O)C/C=C/c2cc(NOC[C@H](O)CO)cc(O)c2C(=O)O[C@H]1C

>  <log10 of IC50>
2.27

$$$$
>  <CHEMICAL_STRUCTURE>
COCCOCCOCCNCNc1cc(O)c2c(c1)/C=C/C[C@H](O)[C@H](O)C(=O)/C=C\[C@@H](C)[C@H](C)OC2=O

>  <log10 of IC50>
2.88

$$$$
>  <CHEMICAL_STRUCTURE>
C[C@@H]1/C=C\C(=O)[C@@H](O)[C@@H](O)C/C=C/c2cc(NCC(=O)N(C)C)cc(O)c2C(=O)O[C@H]1C

>  <log10 of IC50>
2.50

$$$$

// query log10 of IC50 value for entry `C[C@@H]1/C=C\C(=O)[C@@H](O)[C@@H](O)C/C=C/c2cc(NCC3CCNCC3)cc(O)c2C(=O)O[C@H]1C`
2.55

====

test: Antiproliferative activity against human RL cells after 96 hrs by MTT assay; format: functional, cell-based
This listing pairs compounds with measured IC50.
Put your answer as a value accompanied by its unit after it.

>  <CHEMICAL_STRUCTURE>
CCNc1cc(O)c2c(c1)/C=C/C[C@H](O)[C@H](O)C(=O)/C=C\[C@@H](C)[C@H](C)OC2=O

>  <IC50>
1.65 µM

$$$$

Next compound, please.
Form field: reported IC50 of `CNc1cc(O)c2c(c1)/C=C/C[C@H](O)[C@H](O)C(=O)/C=C\[C@@H](C)[C@H](C)OC2=O`
1.62 µM

====

// reported pIC50 per item
experiment: Cytotoxicity against human COLO205 cells expressing B-RAF V600E mutant assessed as reduction in cell viability after 96 hrs by CellTiter-Glo luminescence assay or methylene blue assay; type: functional, cell-based; conditions: COLO 205, 96 h
// scale note: pIC50 = -log10(conc_M); give the bare number

>  <MOLECULE>
CNc1cc(O)c2c(c1)/C=C/C[C@H](O)[C@H](O)C(=O)/C=C\[C@@H](C)[C@H](C)OC2=O

>  <QUANTITY>
pIC50

>  <VALUE_REPORTED>
7.57

$$$$

Which pIC50 value belongs to CCNc1cc(O)c2c(c1)/C=C/C[C@H](O)[C@H](O)C(=O)/C=C\[C@@H](C)[C@H](C)OC2=O [E-6201] ?
7.37

====

experiment: Cytotoxicity against human MES-SA/Dx5-Rx1 cells assessed as reduction in cell viability after 96 hrs by CellTiter-Glo luminescence assay or methylene blue assay; type: functional, cell-based
QUANTITY: pIC50
pIC50 field: float, defined as -log10 of concentration (mol/L).

>  <CHEMICAL_STRUCTURE>
CCNc1cc(O)c2c(c1)/C=C/C[C@H](O)[C@H](O)C(=O)/C=C\[C@@H](C)[C@H](C)OC2=O

>  <pIC50>
5.80

$$$$

Bench note: what pIC50 did `CNc1cc(O)c2c(c1)/C=C/C[C@H](O)[C@H](O)C(=O)/C=C\[C@@H](C)[C@H](C)OC2=O` show?
6.04

Source: ChEMBL document CHEMBL3880411
